Origin of the recorded values: patent US9453009B2

ASSAY_METHOD_TEXT: in vivo;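 further: drug levels in rat plasma quantified by LC/MS/MS after a combined two-compound formulation, quantitation limit 5 ng/mL with lower values set to zero, parameters from noncompartmental analysis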
CONDITION_LABEL: male, Sprague Dawley, rat, iv, 5 mg/kg
ENDPOINT_NAME: concentration at 24 hr (ng/mL)
Write it as a number; the unit ng/mL goes unstated.

The compound CC(=O)NC[C@H]1CN(c2ccc(N3CCOCC3)c(F)c2)C(=O)O1 showed concentration at 24 hr equal to 0

###

ASSAY_METHOD_TEXT: in vivo
CONDITION_LABEL: male, Sprague Dawley, rat, po, 5 mg/kg
ENDPOINT_NAME: concentration at 12 hr (ng/mL)
Write it as a number; the unit ng/mL goes unstated.

CC(=O)NC[C@H]1CN(c2ccc(N3CCOCC3)c(F)c2)C(=O)O1 ... 0

Now look at this entry.
The compound [2H]C1([2H])CN(c2ccc(N3C[C@H](CNC(C)=O)OC3=O)cc2F)CC([2H])([2H])O1 showed concentration at 12 hr equal to 0
